Would you kindly list EC50 for each of these compounds?
# EXPERIMENTAL SYSTEM: Probable G-protein coupled receptor 139 (Homo sapiens)
# Sequence (Q6DWJ6 whole entry): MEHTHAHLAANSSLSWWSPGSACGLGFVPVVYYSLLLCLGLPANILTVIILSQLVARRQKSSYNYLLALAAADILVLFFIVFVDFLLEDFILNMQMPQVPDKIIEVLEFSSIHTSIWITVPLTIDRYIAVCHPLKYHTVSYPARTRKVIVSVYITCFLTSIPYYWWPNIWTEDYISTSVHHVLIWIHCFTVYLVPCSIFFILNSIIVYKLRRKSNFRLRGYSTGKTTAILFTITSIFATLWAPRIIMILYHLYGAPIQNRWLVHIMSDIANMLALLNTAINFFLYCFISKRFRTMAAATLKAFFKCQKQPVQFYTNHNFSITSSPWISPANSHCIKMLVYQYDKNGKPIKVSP
# ASSAY NOTES: Agonist activity at human GPR139 expressed in CHO-K1 cells assessed as induction of beta-arrestin 2 recruitment incubated for 90 mins by PathHunter assay
# Assay type: cell-based

Would you please look over these solved cases?
Cc1ccc([C@H](C)NC(=O)Cn2nc3c(F)cccn3c2=O)cc1 :: ≥ 0.1 µM
COc1ccc2nn(CC(=O)N[C@@H](C)c3ccc(C)cc3)c(=O)n2c1 :: < 0.001 µM
CC(C)[C@H](NC(=O)Cn1nc2cccnn2c1=O)c1ccc(Cl)c(F)c1 :: ≥ 0.1 µM

# batch: return EC50 for each of the 3 compounds below
1. C[C@H](NC(=O)Cn1nc2c(N3CCC34CNC4)cccn2c1=O)c1ccc(Cl)c(F)c1
2. O=C(Cn1nc2cccnn2c1=O)NC1(c2cccc(Cl)c2)CC1
3. C[C@H](NC(=O)Cn1nc2c(I)ccnn2c1=O)c1ccc(OC(F)(F)F)cc1

1: ≥ 0.1 µM; 2: ≥ 0.1 µM; 3: ≥ 0.1 µM

Origin of the recorded values: ChEMBL document CHEMBL4739716
